The origin of these recorded values is patent US9018383B2.

# target_or_test_system: human Edg-2 receptor (Homo sapiens)
# Sequence (Q92633 whole entry): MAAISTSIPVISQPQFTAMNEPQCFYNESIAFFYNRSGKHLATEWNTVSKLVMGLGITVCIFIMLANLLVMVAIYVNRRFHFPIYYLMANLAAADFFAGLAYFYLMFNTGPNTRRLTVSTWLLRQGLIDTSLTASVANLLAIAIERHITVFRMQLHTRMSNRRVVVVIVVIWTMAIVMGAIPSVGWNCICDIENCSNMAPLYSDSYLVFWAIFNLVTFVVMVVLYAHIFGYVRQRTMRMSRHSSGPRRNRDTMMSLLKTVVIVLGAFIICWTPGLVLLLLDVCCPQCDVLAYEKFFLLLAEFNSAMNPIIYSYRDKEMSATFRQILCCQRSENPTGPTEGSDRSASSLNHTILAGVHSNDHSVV
# assay_procedure: Determination of Edg-2 receptor inhibition by FLIPR measurements (LPA-mediated calcium liberation)
# Assay type: cell-based
# test_settings: CHO cells overexpressing human Edg-2 receptor, LPA 100 nM, fluo-4 calcium fluorescence; read-out: Inhibitory concentrations IC50 for inhibition of the Edg-2 receptor
pIC50: −log10 of the molar value.
parameter: pIC50

CC[C@H]1CC[C@](NC(=O)c2cnc(OCCO)c(-c3ccc(F)c(F)c3)c2)(C(=O)O)CC1
> 7.00

Indicate its recorded pIC50; the compound in question is COc1ccc(C(=O)NC2(C(=O)O)CCCC(O)CC2)cc1OCCc1cccc(C)c1 (centres unmarked) 6.00 to 7.00

Indicate its recorded pIC50; the compound in question is "COc1ccc(C(=O)NC2(C(=O)O)CCCCCC2)cc1OCC(F)(F)c1ccccc1" > 7.00

Indicate its recorded pIC50; the compound in question is "COc1ccc(-c2cc(C(=O)N[C@]3(C(=O)O)CC[C@@H](C)CC3)cnc2OC)cc1Cl" > 7.00

Indicate its recorded pIC50; the compound in question is "CC[C@H]1CC[C@](NC(=O)c2cc(OCCc3cccc(C)c3)c3c(c2)OCO3)(C(=O)O)CC1" > 7.00
